Biological target: GGTase-I (Rattus norvegicus, UniProt P53610+Q04631)
Construct: purchased JENA BIOSCIENCE
Experiment: In vitro GGTase-I enzyme assay (IC50, kinetics)
Format: biochemical
Details: Tables 3, 5, 7; read-out: In vitro (enzyme assay) IC50, GGTase I
Experimental: The GGTase-I assay was carried out using RhoA as a substrate protein, GGTase-I (JENA Bioscience) and [3H]geranylgeranyl pyrophosphate. Incubation was for 30 min at 37° C. […] GGTase-I and FTase activities were determined by following the incorporation of radiolabeled isoprenoid [^3H]-geranylgeranyl or [^3H]-farnesyl into substrate proteins. […] Reactions were carried out for 10 min at 30° C. […] The filter was counted using a scintillation counter. […]
QUANTITY_NAME: IC50 (µM)
Use µM as the unit, but write only the number.

Known IC50 results, listed for orientation:
Cc1ccccc1S(=O)(=O)N1[C@@H](c2ccc(Cl)c(Cl)c2)C(C(=O)N[C@@H](Cc2ccccc2)C(N)=O)=C[C@H]1C(C)(C)C [P61-B10] | 5.4
Cc1ccccc1S(=O)(=O)N1[C@@H](c2ccc(Cl)c(Cl)c2)C(C(=O)N[C@@H](Cc2ccccc2)C(N)=O)=C[C@H]1C(C)(C)C [P61-B11] | 7.6

Then there is this molecule:
Request: Need IC50 of Cc1ccccc1S(=O)(=O)N1[C@@H](c2ccc(Cl)cc2)C(C(=O)N[C@@H](CC(C)C)C(N)=O)=C[C@H]1C(C)(C)C , thanks.
Result: 8.1

* * *

system: K562 cells; experiment: K562 cell growth inhibition; type: cell-based, human; details: Homo sapiens, K562; 72 hours, FIG. 36A; read-out: IC50, inhibition of proliferation of K562 cells
The reader will find reported pIC50 values listed item by item below.
Units for pIC50: none; it is -log10 of a concentration expressed in mol/L.

Cc1ccccc1S(=O)(=O)N1[C@@H](c2ccc(Cl)cc2)C(C(=O)O)=C[C@H]1C(C)(C)C (relative stereo) | 4.70

Then there is this molecule:
Request: Need pIC50 of Cc1ccccc1S(=O)(=O)N1C(c2ccc(Cl)cc2)C(C(=O)NC(Cc2ccccc2)C(N)=O)=CC1C(C)(C)C (centres unmarked) , thanks.
Result: 5.66

* * *

molecular target: GGTase-I (Rattus norvegicus, UniProt P53610+Q04631); construct: purchased JENA BIOSCIENCE; assay: In vitro GGTase-I enzyme assay (IC50, kinetics); assay type: biochemical; conditions: Tables 5, 14; read-out: In vitro (enzyme assay) IC50, GGTase I
Just a reminder that ties go to class 0: only IC50 strictly below 200 nM counts as class 1.

NC(=O)[C@H](Cc1ccccc1)NC(=O)C1=CC[C@@H](c2cccc(Br)c2)N(S(=O)(=O)c2ccc(Cl)cc2)C1c1cccc(Cl)c1 (stereo partly drawn) [P61-F11] | class 0

Request: Lab note: IC50 threshold 200 nM. Does this compound come in strictly under it? O=C(NC(Cc1ccccc1)C(=O)O)C1=CCC(c2cccc(Cl)c2)N(S(=O)(=O)c2ccc(Br)cc2)C1c1cccc(Cl)c1 (stereo not drawn) [P61-G05]
Result: class 1

Request: Lab note: IC50 threshold 200 nM. Does this compound come in strictly under it? CC(C)CC(NC(=O)C1=CCC(c2cccc(Cl)c2)N(S(=O)(=O)c2ccc(Br)cc2)C1c1cccc(Cl)c1)C(=O)O (stereo not drawn) [P61-E11]
Result: class 0

Request: Lab note: IC50 threshold 200 nM. Does this compound come in strictly under it? CC(C)CC(NC(=O)C1=CCC(c2cccc(Br)c2)N(S(=O)(=O)c2ccc(F)cc2)C1c1cccc(Cl)c1)C(=O)O (stereo not drawn) [P61-H06]
Result: class 0

Request: Lab note: IC50 threshold 200 nM. Does this compound come in strictly under it? CC(C)CC(NC(=O)C1=CCC(c2cccc(Br)c2)N(S(=O)(=O)c2ccc(Cl)cc2)C1c1cccc(Cl)c1)C(=O)O (stereo not drawn) [P61-G08]
Result: class 1

Request: Lab note: IC50 threshold 200 nM. Does this compound come in strictly under it? O=C(N[C@@H](Cc1ccccc1)C(=O)O)C1=CC[C@@H](c2cccc(Br)c2)N(S(=O)(=O)c2ccc(F)cc2)[C@H]1c1cccc(Cl)c1 [P61-H07]
Result: class 1
